Cited source: ChEMBL document CHEMBL5291721

# collection of AC50 values tested on Histamine H3 receptor (Homo sapiens, UniProt Q9Y5N1); note: assay procedure not described here
# Sequence (Q9Y5N1 whole entry): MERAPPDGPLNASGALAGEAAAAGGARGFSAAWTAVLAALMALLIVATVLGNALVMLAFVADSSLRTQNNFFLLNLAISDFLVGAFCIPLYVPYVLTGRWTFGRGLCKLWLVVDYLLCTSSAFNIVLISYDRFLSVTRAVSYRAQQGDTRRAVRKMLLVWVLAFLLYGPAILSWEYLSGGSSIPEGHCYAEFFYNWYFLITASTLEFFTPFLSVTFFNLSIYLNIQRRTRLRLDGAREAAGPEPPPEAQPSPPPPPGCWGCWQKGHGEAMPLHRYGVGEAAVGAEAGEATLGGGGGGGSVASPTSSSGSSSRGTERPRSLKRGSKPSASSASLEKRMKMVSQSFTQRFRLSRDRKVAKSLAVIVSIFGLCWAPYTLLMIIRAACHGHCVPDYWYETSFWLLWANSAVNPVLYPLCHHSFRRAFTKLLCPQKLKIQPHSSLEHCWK

// below: answered compounds
Request: Write down AC50 measured for item CC(C)(Oc1ccc(Cl)cc1)C(=O)NC(=O)NCN1CCOCC1 [PLAFIBRIDE]
Response: > 30 µM

Request: Write down AC50 measured for item C[C@]12CC[C@@H]3c4ccc(OC(=O)N(CCCl)CCCl)cc4CC[C@H]3[C@@H]1CC[C@@H]2OP(=O)(O)O [ESTRAMUSTINE PHOSPHATE]
Response: > 30 µM

Request: Write down AC50 measured for item CC(=O)OCC(=O)[C@@]1(O)CC[C@H]2[C@@H]3C[C@H](C)C4=CC(=O)C=C[C@]4(C)[C@H]3[C@@H](O)C[C@@]21C [METHYLPREDNISOLONE ACETATE]
Response: > 30 µM

Proceed to the following item.
Request: Write down AC50 measured for item C#CCN(C)Cc1ccccc1
Response: > 30 µM

====

biological target: Sodium-dependent serotonin transporter (Homo sapiens); note: assay procedure not described here
Sequence (P31645 whole entry): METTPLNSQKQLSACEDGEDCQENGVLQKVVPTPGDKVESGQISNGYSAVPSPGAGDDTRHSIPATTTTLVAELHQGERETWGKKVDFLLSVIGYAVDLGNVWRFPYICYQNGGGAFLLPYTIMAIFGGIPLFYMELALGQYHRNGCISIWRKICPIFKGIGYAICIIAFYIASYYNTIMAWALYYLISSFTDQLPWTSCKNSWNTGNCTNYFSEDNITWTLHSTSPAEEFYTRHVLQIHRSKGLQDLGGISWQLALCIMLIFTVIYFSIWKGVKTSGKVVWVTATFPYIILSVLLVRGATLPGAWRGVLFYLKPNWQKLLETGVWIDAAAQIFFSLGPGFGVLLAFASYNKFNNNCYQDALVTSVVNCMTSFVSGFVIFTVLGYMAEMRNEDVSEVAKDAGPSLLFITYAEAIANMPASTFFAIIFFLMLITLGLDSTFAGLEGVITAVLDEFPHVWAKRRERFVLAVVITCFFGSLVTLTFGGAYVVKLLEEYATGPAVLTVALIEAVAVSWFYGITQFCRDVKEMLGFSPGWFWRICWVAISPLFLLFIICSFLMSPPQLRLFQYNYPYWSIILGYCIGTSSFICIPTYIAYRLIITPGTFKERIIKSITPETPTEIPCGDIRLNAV
AC50 listing for selected compounds.

Request: Write down AC50 measured for item CC1(C)CCC(C)(C)c2cc(NC(=O)c3ccc(C(=O)O)cc3)ccc21 [TAMIBAROTENE]
Response: > 30 µM

Request: Write down AC50 measured for item CO[C@@]1(NC(=O)C(C(=O)O)c2ccc(O)cc2)C(=O)N2C(C(=O)O)=C(CSc3nnnn3C)CO[C@@H]21 (stereo partly specified) [MOXALACTAM]
Response: > 30 µM

Request: Write down AC50 measured for item CN1CCc2c(c3ccccc3n2Cc2ccccc2)C1 [MEBHYDROLIN]
Response: 28.5 µM

---
Request: Write down AC50 measured for item CC(C)NC[C@H](O)COc1ccc(O)cc1 [PRENALTEROL]
Response: > 30 µM

Request: Write down AC50 measured for item NC(=O)C1(N2CCCCC2)CCN(CCCN2c3ccccc3CCc3ccccc32)CC1 [CARPIPRAMINE]
Response: 2.73 µM

Request: Write down AC50 measured for item CC(C)Nc1cccnc1N1CCN(C(=O)c2cc3cc(NS(C)(=O)=O)ccc3[nH]2)CC1 [DELAVIRDINE]
Response: > 30 µM

Request: Write down AC50 measured for item CC(=O)O[C@]1(C(C)=O)CC[C@H]2[C@@H]3CCC4=CC(=O)CCC4=C3[C@@H](c3ccc(N(C)C)cc3)C[C@@]21C [ULIPRISTAL ACETATE]
Response: > 30 µM

Request: Write down AC50 measured for item CC1(C)S[C@@H]2[C@H](NC(=O)[C@H](NC(=O)c3cnc4cccnc4c3O)c3ccccc3)C(=O)N2[C@H]1C(=O)O [APALCILLIN]
Response: > 30 µM

Request: Write down AC50 measured for item C[C@]12CC[C@@H]3c4ccc(OC(=O)N(CCCl)CCCl)cc4CC[C@H]3[C@@H]1CC[C@@H]2OP(=O)(O)O [ESTRAMUSTINE PHOSPHATE]
Response: > 30 µM

====

molecular target: Thromboxane A2 receptor (Homo sapiens); assay type: functional, cell-based; note: assay procedure not described here
Sequence (P21731 whole entry): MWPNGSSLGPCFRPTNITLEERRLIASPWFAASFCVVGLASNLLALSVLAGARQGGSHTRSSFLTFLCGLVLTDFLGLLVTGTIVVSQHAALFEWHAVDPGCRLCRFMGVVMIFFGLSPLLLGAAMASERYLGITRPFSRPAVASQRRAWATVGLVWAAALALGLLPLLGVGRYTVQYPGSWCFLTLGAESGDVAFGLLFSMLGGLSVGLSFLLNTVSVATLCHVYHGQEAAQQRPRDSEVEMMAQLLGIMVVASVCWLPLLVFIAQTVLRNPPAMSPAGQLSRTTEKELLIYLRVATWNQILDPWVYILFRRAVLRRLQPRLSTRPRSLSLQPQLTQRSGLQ
Quantity measured: AC50

Request: Write down AC50 measured for item OCc1ccccc1 [BENZYL ALCOHOL]
Response: > 30 µM

Request: Write down AC50 measured for item N[C@@H](Cc1ccc(O)cc1)C(=O)O [TYROSINE]
Response: > 30 µM

Request: Write down AC50 measured for item CC1=C(/C=C/C(C)=C/C=C/C(C)=C\C(=O)O)C(C)(C)CCC1 [ISOTRETINOIN]
Response: > 30 µM

Request: Write down AC50 measured for item COc1cc(C(=O)NCc2ccc(OCCN(C)C)cc2)cc(OC)c1OC [TRIMETHOBENZAMIDE]
Response: > 30 µM

Request: Write down AC50 measured for item CN1CCCC(CC2c3ccccc3Sc3ccccc32)C1 (stereo unspecified) [METHIXENE]
Response: 25 µM

Proceed to the following item.
Request: Write down AC50 measured for item COC(=O)Nc1nc2cc(C(=O)c3ccc(F)cc3)ccc2[nH]1 [FLUBENDAZOLE]
Response: > 30 µM

====

target: Histamine H1 receptor (Homo sapiens, UniProt P35367); note: assay procedure not described here
Sequence (P35367 whole entry): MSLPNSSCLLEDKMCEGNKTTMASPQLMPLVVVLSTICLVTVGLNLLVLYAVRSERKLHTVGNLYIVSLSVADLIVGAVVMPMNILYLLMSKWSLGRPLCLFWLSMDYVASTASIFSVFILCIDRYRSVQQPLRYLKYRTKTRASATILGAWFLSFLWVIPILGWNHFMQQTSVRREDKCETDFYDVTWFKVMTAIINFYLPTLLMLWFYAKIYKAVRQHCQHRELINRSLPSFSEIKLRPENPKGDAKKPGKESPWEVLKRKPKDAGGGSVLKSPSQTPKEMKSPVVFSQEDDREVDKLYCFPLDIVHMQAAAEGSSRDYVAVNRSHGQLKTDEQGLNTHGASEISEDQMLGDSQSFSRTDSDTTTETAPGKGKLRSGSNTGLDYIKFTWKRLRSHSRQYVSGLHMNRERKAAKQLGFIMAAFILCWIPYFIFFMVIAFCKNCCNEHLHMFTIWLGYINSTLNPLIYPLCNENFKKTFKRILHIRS
AC50 listing for selected compounds.

// below: answered compounds
Request: // output AC50; input CC(C)(C)NCC(O)COc1ccccc1C#N (stereo unspecified) ; system Histamine H1 receptor (Homo sapiens, UniProt P35367); note: assay procedure not described here
Response: > 30 µM

Request: // output AC50; input CN(C)CCOCC(=O)NC12CC3CC(CC(C3)C1)C2 ; system Histamine H1 receptor (Homo sapiens, UniProt P35367); note: assay procedure not described here
Response: > 30 µM

Request: // output AC50; input COc1ccc2c3c1O[C@H]1C(=O)CC[C@H]4[C@@H](C2)N(C)CC[C@]314 [HYDROCODONE] ; system Histamine H1 receptor (Homo sapiens, UniProt P35367); note: assay procedure not described here
Response: > 10 µM

Request: // output AC50; input C[C@]12CCC(=O)C=C1CC[C@H]1[C@@H]3CC[C@](O)(C(=O)CO)[C@@]3(C)C[C@H](O)[C@@]12F ; system Histamine H1 receptor (Homo sapiens, UniProt P35367); note: assay procedure not described here
Response: > 10 µM

Request: // output AC50; input CCOC(=O)Nc1ccc(NCc2ccc(F)cc2)nc1N ; system Histamine H1 receptor (Homo sapiens, UniProt P35367); note: assay procedure not described here
Response: > 30 µM

---
Request: // output AC50; input O=C1[C@@H]2[C@H]3CC[C@H](C3)[C@@H]2C(=O)N1C[C@@H]1CCCC[C@H]1CN1CCN(c2nsc3ccccc23)CC1 ; system Histamine H1 receptor (Homo sapiens, UniProt P35367); note: assay procedure not described here
Response: 8.7 µM

Request: // output AC50; input CCC[C@@]1(CCc2ccccc2)CC(O)=C([C@H](CC)c2cccc(NS(=O)(=O)c3ccc(C(F)(F)F)cn3)c2)C(=O)O1 ; system Histamine H1 receptor (Homo sapiens, UniProt P35367); note: assay procedure not described here
Response: > 30 µM

Request: // output AC50; input CC(=O)NC[C@H]1CN(c2ccc(N3CCOCC3)c(F)c2)C(=O)O1 ; system Histamine H1 receptor (Homo sapiens, UniProt P35367); note: assay procedure not described here
Response: > 30 µM

Request: // output AC50; input COc1ccc(-n2nc(C(N)=O)c3c2C(=O)N(c2ccc(N4CCCCC4=O)cc2)CC3)cc1 ; system Histamine H1 receptor (Homo sapiens, UniProt P35367); note: assay procedure not described here
Response: > 30 µM

Request: // output AC50; input COC(=O)[C@H]1[C@H]2C[C@@H]3c4[nH]c5ccccc5c4CCN3C[C@H]2C[C@@H](OC(=O)c2cc(OC)c(OC)c(OC)c2)[C@@H]1OC ; system Histamine H1 receptor (Homo sapiens, UniProt P35367); note: assay procedure not described here
Response: > 10 µM

Request: // output AC50; input OCC(O)COc1ccc(Cl)cc1 (stereo unspecified) ; system Histamine H1 receptor (Homo sapiens, UniProt P35367); note: assay procedure not described here
Response: > 10 µM

====

molecular target: Alpha-2A adrenergic receptor (Homo sapiens); format: functional, cell-based; note: assay procedure not described here
Sequence (P08913 whole entry): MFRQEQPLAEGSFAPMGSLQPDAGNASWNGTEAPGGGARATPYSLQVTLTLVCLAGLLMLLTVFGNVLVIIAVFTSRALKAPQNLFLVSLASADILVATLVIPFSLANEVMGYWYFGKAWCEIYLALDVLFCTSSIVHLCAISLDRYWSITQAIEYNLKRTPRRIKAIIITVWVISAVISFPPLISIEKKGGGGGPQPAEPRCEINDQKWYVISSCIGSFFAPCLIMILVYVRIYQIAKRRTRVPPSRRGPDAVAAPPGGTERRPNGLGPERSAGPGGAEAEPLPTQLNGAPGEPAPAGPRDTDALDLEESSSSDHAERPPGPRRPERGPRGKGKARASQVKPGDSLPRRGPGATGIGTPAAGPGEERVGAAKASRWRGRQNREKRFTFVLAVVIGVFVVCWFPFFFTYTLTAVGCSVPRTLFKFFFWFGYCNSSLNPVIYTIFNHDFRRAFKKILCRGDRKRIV
AC50 listing for selected compounds.

Request: Write down AC50 measured for item CCCO[C@H]1[C@@H]([C@@H](COCc2ccc(Cl)cc2)OCc2ccc(Cl)cc2)OC(OCC)[C@@H]1O (stereo partly drawn) [CLOBENOSIDE]
Response: > 30 µM

Request: Write down AC50 measured for item NCC1(CC(=O)O)CCCCC1
Response: > 30 µM

Request: Write down AC50 measured for item CC(NC(C)(C)C)C(=O)c1cccc(Cl)c1 (stereo not drawn)
Response: > 10 µM

Request: Write down AC50 measured for item CC(=O)OCC(=O)[C@@]1(O)CC[C@H]2[C@@H]3CCC4=CC(=O)CC[C@]4(C)[C@@]3(F)[C@@H](O)C[C@@]21C [FLUDROCORTISONE ACETATE]
Response: > 30 µM

Request: Write down AC50 measured for item CS(=O)(=O)NC(=O)CCC/C=C\C[C@H]1C(=O)C[C@@H](O)[C@@H]1/C=C/[C@@H](O)COc1ccccc1
Response: > 30 µM

Request: Write down AC50 measured for item CN(C)CCCC1(c2ccc(F)cc2)OCc2cc(C#N)ccc21 (stereo not drawn)
Response: > 10 µM

Request: Write down AC50 measured for item CC(=O)OCC1=C(C(=O)O)N2C(=O)[C@@H](NC(=O)CSc3ccncc3)[C@H]2SC1
Response: > 10 µM

Request: Write down AC50 measured for item COc1ccc(-c2cc(=S)ss2)cc1
Response: > 30 µM

====

molecular target: UniProt O95342; type: functional
Sequence (O95342 whole entry): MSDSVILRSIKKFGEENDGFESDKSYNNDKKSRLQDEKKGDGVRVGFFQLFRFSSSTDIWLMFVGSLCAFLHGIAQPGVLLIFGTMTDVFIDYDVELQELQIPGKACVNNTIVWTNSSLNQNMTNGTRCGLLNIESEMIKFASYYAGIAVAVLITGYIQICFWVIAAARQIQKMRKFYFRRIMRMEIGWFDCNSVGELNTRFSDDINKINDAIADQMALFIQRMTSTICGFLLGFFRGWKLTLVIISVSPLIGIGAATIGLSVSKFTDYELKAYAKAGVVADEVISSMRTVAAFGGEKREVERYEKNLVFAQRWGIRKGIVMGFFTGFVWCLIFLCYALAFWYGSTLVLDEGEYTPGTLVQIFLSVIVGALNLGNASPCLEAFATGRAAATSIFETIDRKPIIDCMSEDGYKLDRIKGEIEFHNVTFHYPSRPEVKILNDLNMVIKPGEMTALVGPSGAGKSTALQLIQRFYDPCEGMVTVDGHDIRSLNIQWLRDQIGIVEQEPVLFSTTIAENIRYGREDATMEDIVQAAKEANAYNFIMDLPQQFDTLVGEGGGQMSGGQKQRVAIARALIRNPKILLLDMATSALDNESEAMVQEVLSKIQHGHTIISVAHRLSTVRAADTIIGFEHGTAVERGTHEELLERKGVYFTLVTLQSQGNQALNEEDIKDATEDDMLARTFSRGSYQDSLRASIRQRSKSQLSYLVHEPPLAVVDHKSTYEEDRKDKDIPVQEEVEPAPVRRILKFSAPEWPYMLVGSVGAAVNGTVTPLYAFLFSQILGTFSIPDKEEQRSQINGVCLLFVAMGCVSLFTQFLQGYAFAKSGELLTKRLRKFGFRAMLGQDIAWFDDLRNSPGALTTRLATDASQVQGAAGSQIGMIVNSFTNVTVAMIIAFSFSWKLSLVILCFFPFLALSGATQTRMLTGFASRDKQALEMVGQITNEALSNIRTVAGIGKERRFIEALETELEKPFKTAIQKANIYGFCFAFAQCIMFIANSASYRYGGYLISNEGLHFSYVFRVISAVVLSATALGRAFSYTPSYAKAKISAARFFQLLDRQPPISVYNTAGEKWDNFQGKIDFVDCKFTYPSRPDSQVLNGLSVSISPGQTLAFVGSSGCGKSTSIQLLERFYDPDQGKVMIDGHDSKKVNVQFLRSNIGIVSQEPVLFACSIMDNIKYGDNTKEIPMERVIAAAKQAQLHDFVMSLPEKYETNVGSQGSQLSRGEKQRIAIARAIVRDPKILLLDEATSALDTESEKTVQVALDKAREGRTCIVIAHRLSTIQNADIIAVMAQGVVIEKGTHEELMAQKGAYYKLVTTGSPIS
Quantity measured: AC50

// below: answered compounds
Request: Write down AC50 measured for item CC[N+](CC)(CCNC(=O)C(=O)NCC[N+](CC)(CC)Cc1ccccc1Cl)Cc1ccccc1Cl
Response: > 300 µM

Request: Write down AC50 measured for item Nc1nnc(-c2cccc(Cl)c2Cl)c(N)n1
Response: > 300 µM

Request: Write down AC50 measured for item NCC1(CC(=O)O)CCCCC1
Response: > 300 µM

Request: Write down AC50 measured for item CC(=O)NC[C@H]1CN(c2ccc(N3CCOCC3)c(F)c2)C(=O)O1
Response: > 300 µM

Request: Write down AC50 measured for item Cc1ccc(C(C)C)c(O)c1
Response: > 300 µM

---
Request: Write down AC50 measured for item CC(C)(CO)c1cc2cc(NC(=O)C3(c4ccc5c(c4)OC(F)(F)O5)CC3)c(F)cc2n1C[C@@H](O)CO
Response: > 10 µM

Request: Write down AC50 measured for item CNC1(C)C2CCC(C2)C1(C)C (configuration not stated)
Response: > 300 µM
